src = paper PMC5487681

biological target: Na^+,K^+-ATPase (Sus scrofa, UniProt P05024); construct: from tissue; host or cells: porcine kidney (gift of Natalya Fedosova, Aarhus University); assay: ATP hydrolysis assay, Na+,K+-ATPase; format: biochemical, porcine; settings: Table 1; ATP hydrolysis at pH 7; read-out: IC50 Na^+,K^+-ATPase
assay-metric: pIC50
In textbook form, pIC50 equals minus log to base ten of the concentration in mol/L.

CN1CCc2c(sc3c2C(=O)NC(c2ccc(-c4cccc(Cl)c4)o2)N3)C1 (centres unmarked) = 4.51
CCCCOc1ccc(C2C(C#N)=C(N)Oc3cc(O)ccc32)cc1 (centres unmarked) = 4.52
COc1ccc(Cn2c(SCc3cc(C)ccc3C)nc3cc(OC)c(OC)cc3c2=N)cc1 = 4.23

Next item in the queue.
Exercise: I'd like to know its pIC50. The molecule in question is CCCCc1nc2sc3c(NCCCN(C)C)ncnc3c2c2c1CCCC2
Key: 4.74
